- Tested on: MS751 (Cervical Carcinoma)
- Experiment description: combination Emax (second highest fraction inhibited in the dose matrix, 72 h); higher = more inhibition; extreme values may be limits of the assay
Property name: combination Emax
Answer with a bare number; do not write a unit.

// lookup combination Emax | system=MS751 (Cervical Carcinoma) | key= NC1(C(=O)N[C@@H](CCO)c2ccc(Cl)cc2)CCN(c2ncnc3[nH]ccc23)CC1 [Capivasertib] + COc1nnc2ccc(N3CCC(c4ccc(OCCN5CCN(C)C(=O)[C@H]5C)cc4)CC3)nn12 [AZD5153] (first compound max 10 µM, 7x7, partner max 1 µM)
0.794

Look up combination Emax with MS751 (Cervical Carcinoma) for this compound: Cc1cc2ncnn2cc1Nc1ncc2c(n1)n(C1CCOCC1)c(=O)n2C [AZD7648] + O=C(c1cc(Cc2n[nH]c(=O)c3ccccc23)ccc1F)N1CCN(C(=O)C2CC2)CC1 [Olaparib] (first compound max 10 µM, 7x7, partner max 10 µM)
0.197

Request: combination Emax, test system MS751 (Cervical Carcinoma), entry Cc1c2c(nn1C)CSCc1cc(n(C)n1)CSc1cc(c3ccccc3c1)OCCCc1c(C(=O)O)n(C)c3c-2c(Cl)ccc13 [AZD5991] + CC1(C)CCC(CN2CCN(c3ccc(C(=O)NS(=O)(=O)c4ccc(NCC5CCOCC5)c([N+](=O)[O-])c4)c(Oc4cnc5[nH]ccc5c4)c3)CC2)=C(c2ccc(Cl)cc2)C1 [Venetoclax] (first compound max 1 µM, 7x7, partner max 1 µM)
0.812

* * *

- Tested on: SW1417 (Colorectal Carcinoma)
- Experiment description: combination Emax (second highest fraction inhibited in the dose matrix, 72 h); higher = more inhibition; extreme values may be limits of the assay
Property name: combination Emax

Name the recorded combination Emax for Cc1c2c(nn1C)CSCc1cc(n(C)n1)CSc1cc(c3ccccc3c1)OCCCc1c(C(=O)O)n(C)c3c-2c(Cl)ccc13 [AZD5991] + C[C@@H](Nc1cc(F)cc(F)c1)c1cc(C(=O)N(C)C)cc2c(=O)cc(N3CCOCC3)oc12 [AZD8186] (first compound max 1 µM, 7x7, partner max 3 µM) .
0.275

Given COc1cccc(OCCCN)c1-c1cc(Nc2cnc(C#N)cn2)n[nH]1 [Prexasertib] + C[C@@H]1COCCN1C2=NC(=NC(=C2)C3(CC3)[S@](=N)(=O)C)C4=C5C=CNC5=NC=C4 [AZD6738] (first compound max 1 µM, 7x7, partner max 10 µM) , state its recorded combination Emax.
0.629

Could you tell me which combination Emax is on file for C[C@@H](c1ccc2nccn2c1)n1nnc2ncc(-c3cnn(C)c3)nc21 [Savolitinib] + Cc1c2c(nn1C)CSCc1cc(n(C)n1)CSc1cc(c3ccccc3c1)OCCCc1c(C(=O)O)n(C)c3c-2c(Cl)ccc13 [AZD5991] (first compound max 1 µM, 7x7, partner max 1 µM) ?
0.161

Look up combination Emax for this compound: CC(=O)c1c(C)c2cnc(Nc3ccc(N4CCNCC4)cn3)nc2n(C2CCCC2)c1=O [Palbociclib] + Cn1cnc2c(F)c(Nc3ccc(Br)cc3Cl)c(C(=O)NOCCO)cc21 [Selumetinib] (first compound max 10 µM, 7x7, partner max 10 µM)
0.512

* * *

Hi there, I'd appreciate the recorded combination Emax for every entry that follows.
- System: MS751 (Cervical Carcinoma)
- Experiment description: combination Emax (second highest fraction inhibited in the dose matrix, 72 h); higher = more inhibition; extreme values may be limits of the assay
Write no unit; give the number alone.

Entry CN(CCO)CC[C@H](CSc1ccccc1)Nc1ccc(S(=O)(=O)NC(=O)c2ccc(N3CCC([C@@H](O)c4ccccc4-c4ccc(Cl)cc4)CC3)cc2)cc1S(=O)(=O)C(F)(F)F [AZD4320] + CN(C)CCCOc1ccc(-c2ccc3ncc4c(c3c2)n(C2CCOCC2)c(=O)n4C)cn1 [AZD0156] (first compound max 1 µM, 7x7, partner max 1 µM) has what combination Emax?
0.101

If you can, please state the reported combination Emax value of COc1nnc2ccc(N3CCC(c4ccc(OCCN5CCN(C)C(=O)[C@H]5C)cc4)CC3)nn12 [AZD5153] + CCN(CCO)CCCOc1ccc2c(Nc3cc(CC(=O)Nc4cccc(F)c4)[nH]n3)ncnc2c1 [AZD2811] (first compound max 1 µM, 7x7, partner max 1 µM) .
0.789

Endpoint output: combination Emax of CN(CCO)CC[C@H](CSc1ccccc1)Nc1ccc(S(=O)(=O)NC(=O)c2ccc(N3CCC([C@@H](O)c4ccccc4-c4ccc(Cl)cc4)CC3)cc2)cc1S(=O)(=O)C(F)(F)F [AZD4320] + C[C@@H]1COCCN1C2=NC(=NC(=C2)C3(CC3)[S@](=N)(=O)C)C4=C5C=CNC5=NC=C4 [AZD6738] (first compound max 1 µM, 7x7, partner max 10 µM) . Value?
0.378

* * *

- System: HL-60 (Acute Myeloid Leukemia);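 note: after 72 h of two-drug dosing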
- Experiment description: Bliss excess, mean over the matrix (fraction); higher = more synergy
Property name: Bliss excess
Keep it simple and answer with nothing but the number.

Endpoint output: Bliss excess of CC(=O)c1c(C)c2cnc(Nc3ccc(N4CCNCC4)cn3)nc2n(C2CCCC2)c1=O [Palbociclib] + CC1(C)CCC(CN2CCN(c3ccc(C(=O)NS(=O)(=O)c4ccc(NCC5CCOCC5)c([N+](=O)[O-])c4)c(Oc4cnc5[nH]ccc5c4)c3)CC2)=C(c2ccc(Cl)cc2)C1 [Venetoclax] (first compound max 10 µM, 7x7, partner max 1 µM) . Value?
-0.0215

Which Bliss excess value belongs to Cc1c2c(nn1C)CSCc1cc(n(C)n1)CSc1cc(c3ccccc3c1)OCCCc1c(C(=O)O)n(C)c3c-2c(Cl)ccc13 [AZD5991] + CCN(CCO)CCCOc1ccc2c(Nc3cc(CC(=O)Nc4cccc(F)c4)[nH]n3)ncnc2c1 [AZD2811] (first compound max 1 µM, 7x7, partner max 1 µM) ?
-0.0001

Data request, read-out Bliss excess, for CC1(C)CCC(CN2CCN(c3ccc(C(=O)NS(=O)(=O)c4ccc(NCC5CCOCC5)c([N+](=O)[O-])c4)c(Oc4cnc5[nH]ccc5c4)c3)CC2)=C(c2ccc(Cl)cc2)C1 [Venetoclax] + C[C@@H](Nc1cc(F)cc(F)c1)c1cc(C(=O)N(C)C)cc2c(=O)cc(N3CCOCC3)oc12 [AZD8186] (first compound max 1 µM, 7x7, partner max 3 µM)
0.0249

I have this compound here, CCN(CCO)CCCOc1ccc2c(Nc3cc(CC(=O)Nc4cccc(F)c4)[nH]n3)ncnc2c1 [AZD2811] + C[C@@H]1COCCN1C2=NC(=NC(=C2)C3(CC3)[S@](=N)(=O)C)C4=C5C=CNC5=NC=C4 [AZD6738] (first compound max 1 µM, 7x7, partner max 10 µM) , and I need its recorded Bliss excess.
-0.0776

Sample C=CCn1c(=O)c2cnc(Nc3ccc(N4CCN(C)CC4)cc3)nc2n1-c1cccc(C(C)(C)O)n1 [AZD1775] + C1CN(CCC1(C(=O)N[C@@H](CCO)C2=CC=C(C=C2)Cl)N)C3=NC=NC4=C3C=CN4 [Capivasertib] (first compound max 3 µM, partner max 3 µM) — what was its Bliss excess?
0.0265

Consider the compound shown here: Cc1c2c(nn1C)CSCc1cc(n(C)n1)CSc1cc(c3ccccc3c1)OCCCc1c(C(=O)O)n(C)c3c-2c(Cl)ccc13 [AZD5991] + CN(C)CCCOc1ccc(-c2ccc3ncc4c(c3c2)n(C2CCOCC2)c(=O)n4C)cn1 [AZD0156] (first compound max 1 µM, 7x7, partner max 1 µM) What is its recorded Bliss excess?
0.006

Using the record for Cc1cc2ncnn2cc1Nc1ncc2c(n1)n(C1CCOCC1)c(=O)n2C [AZD7648] + C[C@@H]1COCCN1C2=NC(=NC(=C2)C3(CC3)[S@](=N)(=O)C)C4=C5C=CNC5=NC=C4 [AZD6738] (first compound max 10 µM, 7x7, partner max 10 µM) , report its Bliss excess.
-0.0079

* * *

- Tested on: K-562 (Chronic Myelogenous Leukemia)
- Experiment description: combination Emax (second highest fraction inhibited in the dose matrix, 72 h); higher = more inhibition; extreme values may be limits of the assay
Property name: combination Emax
Give the value as a plain number.

Please provide the recorded combination Emax for CC1(C)CCC(CN2CCN(c3ccc(C(=O)NS(=O)(=O)c4ccc(NCC5CCOCC5)c([N+](=O)[O-])c4)c(Oc4cnc5[nH]ccc5c4)c3)CC2)=C(c2ccc(Cl)cc2)C1 [Venetoclax] + C[C@@H](Nc1cc(F)cc(F)c1)c1cc(C(=O)N(C)C)cc2c(=O)cc(N3CCOCC3)oc12 [AZD8186] (first compound max 1 µM, 7x7, partner max 3 µM) , tested on K-562 (Chronic Myelogenous Leukemia).
0.347

Lookup: combination Emax / K-562 (Chronic Myelogenous Leukemia) / C[C@@H]1COCCN1c1cc(C2([S@](C)(=N)=O)CC2)nc(-c2ccnc3[nH]ccc23)n1 [AZD6738] + Nc1ccn([C@@H]2O[C@H](CO)[C@@H](O)C2(F)F)c(=O)n1 [Gemcitabine] (first compound max 10 µM, 7x7, partner max 0.3 µM)
0.916

Which combination Emax is reported with K-562 (Chronic Myelogenous Leukemia) for this entry: C=CCn1c(=O)c2cnc(Nc3ccc(N4CCN(C)CC4)cc3)nc2n1-c1cccc(C(C)(C)O)n1 [AZD1775] + C[C@@H]1COCCN1C2=NC(=NC(=C2)C3(CC3)[S@](=N)(=O)C)C4=C5C=CNC5=NC=C4 [AZD6738] (first compound max 1 µM, partner max 10 µM) ?
0.934

Form field - read-out: combination Emax; system: K-562 (Chronic Myelogenous Leukemia); submitted item: C[C@@H]1COCCN1c1cc(C2([S@](C)(=N)=O)CC2)nc(-c2ccnc3[nH]ccc23)n1 [AZD6738] + C1CC(C1)(C(=O)[O-])C(=O)[O-].N.N.[Pt+2] [Carboplatin] (first compound max 10 µM, 7x7, partner max 10 µM)
0.847

Field: combination Emax (K-562 (Chronic Myelogenous Leukemia)). Entry: CC1(C)CCC(CN2CCN(c3ccc(C(=O)NS(=O)(=O)c4ccc(NCC5CCOCC5)c([N+](=O)[O-])c4)c(Oc4cnc5[nH]ccc5c4)c3)CC2)=C(c2ccc(Cl)cc2)C1 [Venetoclax] + C=CCn1c(=O)c2cnc(Nc3ccc(N4CCN(C)CC4)cc3)nc2n1-c1cccc(C(C)(C)O)n1 [AZD1775] (first compound max 1 µM, partner max 1 µM)
0.892

What is its combination Emax for K-562 (Chronic Myelogenous Leukemia)? Entry: C=CCn1c(=O)c2cnc(Nc3ccc(N4CCN(C)CC4)cc3)nc2n1-c1cccc(C(C)(C)O)n1 [AZD1775] + C1CN(CCC1(C(=O)N[C@@H](CCO)C2=CC=C(C=C2)Cl)N)C3=NC=NC4=C3C=CN4 [Capivasertib] (first compound max 3 µM, partner max 3 µM)
0.895

Query the reported combination Emax for K-562 (Chronic Myelogenous Leukemia); item: CC1(C)CCC(CN2CCN(c3ccc(C(=O)NS(=O)(=O)c4ccc(NCC5CCOCC5)c([N+](=O)[O-])c4)c(Oc4cnc5[nH]ccc5c4)c3)CC2)=C(c2ccc(Cl)cc2)C1 [Venetoclax] + C[C@@H]1COCCN1C2=NC(=NC(=C2)C3(CC3)[S@](=N)(=O)C)C4=C5C=CNC5=NC=C4 [AZD6738] (first compound max 1 µM, 7x7, partner max 10 µM)
0.788

Data credit: the supplement of paper PMC11061612
